meta.source: paper PMC12592502

SUBJECT_OF_TEST: PBP4 (Klebsiella pneumoniae)
MEASUREMENT_NOTES: Membrane PBP binding assay, competition with Bocillin FL
TEST_PARAMETERS: K. pneumoniae ATCC 13883 membranes
QUANTITY: pIC50
Please keep in mind that pIC50 is minus log10 of the molar concentration; only the number is needed.

Return reported pIC50. Input compound: N[C@@H](C(=O)N[C@@H]1C(=O)N2C(C(=O)O)=C(Cl)CC[C@H]12)c1ccccc1 [LOR, loracarbef, reference compound] 5.99

###

System: A. baumannii ATCC 19606
MEASUREMENT_NOTES: MIC, broth microdilution (CLSI)
Assay type: cell-based, Acinetobacter baumannii
TEST_PARAMETERS: Acinetobacter baumannii, ATCC19606, ID-MHBCA + 1 µg/mL supplemental iron; read-out: MIC
QUANTITY: MIC

Use the examples below as a reference point.
>  <COMPOUND>
O=C(CCC(=O)N(CCCCNC(=O)c1cccc(O)c1O)CCCNC(=O)c1cccc(O)c1O)NCCCCCN(O)C(=O)CCCC(=O)NC(C(=O)NC1C(=O)N2C(C(=O)O)=C(Cl)CSC12)c1ccccc1 (stereo not drawn)

>  <MIC>
> 6.3 µM

$$$$
>  <COMPOUND>
CC1(C)S[C@@H]2[C@H](NC(=O)[C@H](N)c3ccccc3)C(=O)N2[C@H]1C(=O)O [AMP, ampicillin, reference compound]

>  <MIC>
> 200 µM

$$$$

Please examine the following record next.
Return reported MIC. Input compound: N[C@@H](C(=O)N[C@@H]1C(=O)N2C(C(=O)O)=C(Cl)CS[C@H]12)c1ccccc1 [CEF, cefaclor, reference compound] > 200 µM
